Target: hMC4-R (human), P32245
Sequence (P32245 whole entry): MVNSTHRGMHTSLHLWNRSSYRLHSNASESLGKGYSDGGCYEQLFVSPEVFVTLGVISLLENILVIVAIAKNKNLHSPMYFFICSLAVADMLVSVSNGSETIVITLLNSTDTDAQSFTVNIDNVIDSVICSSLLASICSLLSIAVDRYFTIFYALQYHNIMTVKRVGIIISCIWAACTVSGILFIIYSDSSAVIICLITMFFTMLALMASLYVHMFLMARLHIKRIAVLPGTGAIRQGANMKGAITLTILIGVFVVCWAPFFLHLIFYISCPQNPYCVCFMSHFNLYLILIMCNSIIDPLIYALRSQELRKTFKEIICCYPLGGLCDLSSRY
Test: competition
Conditions: modification not given
Bridges are numbered along the chain shown (N, C = ends). Where no end group is shown, it is not given here. [ ]: non-standard residue; d: D form. 2Nal = N[C@@H](Cc1ccc2ccccc2c1)C(=O)O; d2Nal = N[C@H](Cc1ccc2ccccc2c1)C(=O)O; hPhe = N[C@@H](CCc1ccccc1)C(=O)O; dCha = N[C@H](CC1CCCCC1)C(=O)O; dTle = CC(C)(C)[C@@H](N)C(=O)O; Nle = CCCC[C@H](N)C(=O)O; Apn = not defined here; Ahx = NCCCCCC(=O)O; GABA = NCCCC(=O)O
# pKi values compiled below
Keep in mind that pKi stands for -log10 of concentration in molar terms.

Example entries and their recorded answers appear below.
INSERT INTO results (binder, property_label, recorded_number) VALUES
  ('Ac-[Nle]CH[dF]RW[Apn]C-NH2 (disulfide 2-8; reading uncertain) [Ac-Nle-c(Cys-His-D-Phe-Arg-Trp-Apn-Cys)-NH2]', 'pKi', 9.05),
  ('Ac-[Nle]C[dCha]H[dF]RWC-NH2 (disulfide 2-8; SMILES CCCC[C@H](NC(C)=O)C(=O)N[C@H]1CSSC[C@@H](C(N)=O)NC(=O)[C@H](Cc2c[nH]c3ccccc23)NC(=O)[C@H](CCCNC(=N)N)NC(=O)[C@@H](Cc2ccccc2)NC(=O)[C@H](Cc2c[nH]cn2)NC(=O)[C@@H](CC2CCCCC2)NC1=O) [Ac-Nle-c(Cys-D-Cha-His-D-Phe-Arg-Trp-Cys)-NH2]', 'pKi', 8.85),
  ('Ac-[hPhe]DH[dF]RW[GABA]K-NH2 (lactam 2-8) [Ac-hPhe-c(Asp-His-D-Phe-Arg-Trp-Gaba-Lys)-NH2]', 'pKi', 8.47);

**Query** // pKi lookup, key: Ac-[hPhe]DH[d2Nal]RW[GABA]K-NH2 (lactam 2-8) [Ac-hPhe-c(Asp-His-D-2-Nal-Arg-Trp-Gaba-Lys)-NH2]
**Result** 9.03

**Query** Check Ac-[Nle]C[dTle]H[dF]RWC-NH2 (disulfide 2-8) [Ac-Nle-c(Cys-D-Tle-His-D-Phe-Arg-Trp-Cys)-NH2] too.
**Result** 7.95

**Query** Also check Ac-[Nle]CH[d2Nal]RW[Ahx]C-NH2 (disulfide 2-8) [Ac-Nle-c(Cys-His-D-2-Nal-Arg-Trp-Ahx-Cys)-NH2]
**Result** 9.00

**Query** Next up: Ac-C[dA]H[dF]R[2Nal]AC-NH2 (disulfide 1-8; SMILES CC(=O)N[C@H]1CSSC[C@@H](C(N)=O)NC(=O)[C@H](C)NC(=O)[C@H](Cc2ccc3ccccc3c2)NC(=O)[C@H](CCCNC(=N)N)NC(=O)[C@@H](Cc2ccccc2)NC(=O)[C@H](Cc2c[nH]cn2)NC(=O)[C@@H](C)NC1=O) [Ac-c(Cys-D-Ala-His-D-Phe-Arg-2-Nal-Ala-Cys)-NH2]
**Result** 7.39

**Query** Queued: Ac-[2Nal]CH[dF]RW[GABA]C-NH2 (disulfide 2-8; SMILES CC(=O)N[C@@H](Cc1ccc2ccccc2c1)C(=O)N[C@H]1CSSC[C@@H](C(N)=O)NC(=O)CCCNC(=O)[C@H](Cc2c[nH]c3ccccc23)NC(=O)[C@H](CCCNC(=N)N)NC(=O)[C@@H](Cc2ccccc2)NC(=O)[C@H](Cc2c[nH]cn2)NC1=O) [Ac-2-Nal-c(Cys-His-D-Phe-Arg-Trp-Gaba-Cys)-NH2]
**Result** 8.53

**Query** What do you have for [Nle]CH[dF]RW[GABA]C-NH2 (disulfide 2-8) [Nle-c(Cys-His-D-Phe-Arg-Trp-Gaba-Cys)-NH2] ?
**Result** 9.33

Source of measurements: patent US20170240595
